System: giant foxtail (Setaria faberi)
assay-procedure: Test G Pre-Emergence Protocol
Type: in vivo
settings: Setaria faberi, pre-emergence, 312 h, 62.5 g ai/ha, evaluated after 13 days, 100=total damage to plant, 0=no damage to plant, read-out: plant damage rating, Foxtail, Giant

{"columns": ["molecule", "target-entity", "unit-text", "pest or weed control at 62.5 g/ha"],
 "data": [
  ["Cc1cc(NC(=O)[C@@H]2C(=O)N(C)C[C@H]2c2ccc(C(F)(F)F)cc2)[nH]n1 (racemic) [Compound 1626]", "giant foxtail (Setaria faberi)", "%", 0],
  ["CN1C[C@@H](c2ccc(C(F)(F)F)cc2)[C@H](C(=O)Nc2ccon2)C1=O (racemic) [Compound 1506]", "giant foxtail (Setaria faberi)", "%", 0],
  ["CN1C[C@@H](c2ccc(C(F)(F)F)cc2)[C@H](C(=O)Nc2ccccc2Cl)C1=O (racemic) [Compound 1598]", "giant foxtail (Setaria faberi)", "%", 80],
  ["CSc1nccc(NC(=O)[C@@H]2C(=O)N(C)C[C@H]2c2ccc(C(F)(F)F)cc2)n1 (racemic) [Compound 1516]", "giant foxtail (Setaria faberi)", "%", 0]
]}

###

Test system: Kochia (Kochia scoparia)
assay-procedure: Test A postemergence
Type: in vivo
settings: Bassia scoparia, post-emergence, 240 h, 500 g ai/ha, postemergence; 0 to 100 scale, 0 is no effect, 100 is complete control; read-out: Kochia plant response rating
Description: […]

{"columns": ["molecule", "pest or weed control at 500 g/ha / %"],
 "data": [
  ["COc1cc([C@H]2CN(C)C(=O)[C@@H]2C(=O)Nc2ccccc2SC)cc(OC)c1OC [Compound 1218]", 20],
  ["CN1C[C@H](c2cc(C(F)F)cs2)[C@@H](C(=O)Nc2ccccc2F)C1=O [Compound 1120]", 70],
  ["Cc1cc([C@H]2CN(C)C(=O)[C@@H]2C(=O)Nc2ccccc2S(C)(=O)=O)ccc1Br [Compound 1102]", 0]
]}

###

System: pigweed (Amaranthus retroflexus)
assay-procedure: Test A postemergence
Assay type: in vivo
settings: 125 g ai/ha, postemergence; visual injury after approximately 10 d; 0 to 100 scale (0 no effect, 100 complete control)
Listing: Plant response rating, Pigweed of selected compounds

{"columns": ["compound", "target-entity", "Plant response rating, Pigweed"],
 "data": [
  ["O=C1NCC(c2cccc(Br)c2)C1C(=O)Nc1ccc(F)c(F)c1F (racemic) [Compound 689]", "pigweed (Amaranthus retroflexus)", 30],
  ["CN1CC(c2ccc(C(C)(F)F)cc2)C(C(=O)Nc2ccc(F)cc2F)C1=O (centres unmarked) [Compound 693]", "pigweed (Amaranthus retroflexus)", 10],
  ["O=C1NCC(c2cccc3ccccc23)C1C(=O)Nc1cccc(F)c1F (racemic) [Compound 711]", "pigweed (Amaranthus retroflexus)", 0],
  ["O=C1NCC(c2ccc(I)cc2)C1C(=O)Nc1ccccc1Cl (racemic) [Compound 704]", "pigweed (Amaranthus retroflexus)", 0],
  ["O=C1NCC(c2ccc(I)cc2)C1C(=O)Nc1cccc(F)c1 (racemic) [Compound 703]", "pigweed (Amaranthus retroflexus)", 0]
]}

###

System: corn (Zea mays)
assay-procedure: Test G Post-Emergence Protocol
Type: in vivo
settings: Zea mays, post-emergence, 312 h, 15.625 g ai/ha, evaluated after 13 days (100=total damage to plant; 0=no damage to plant), read-out: Corn damage rating
Item-by-item account of plant injury at 15.625 g/ha

{"columns": ["compound", "plant injury at 15.625 g/ha [%]"],
 "data": [
  ["Cc1cc(NC(=O)[C@@H]2C(=O)N(C)C[C@H]2c2ccc(C(F)(F)F)cc2)on1 (racemic)", 0],
  ["CN1CC(c2cc(C#N)cc(C(F)(F)F)c2)C(C(=O)Nc2cccc(F)c2F)C1=O (centres unmarked)", 0],
  ["CN1CCCC(NC(=O)[C@H]2C(=O)N(C)C[C@@H]2c2ccc(C(F)(F)F)cc2)C1=O (mixture of isomers)", 0],
  ["CN1C[C@H](c2ccc(C(C)(C)C)cc2)[C@@H](C(=O)Nc2ccccc2F)C1=O (racemic)", 0],
  ["CN1C[C@H](c2cccc(C(C)(C)C#N)c2)[C@@H](C(=O)Nc2cccc(F)c2F)C1=O (racemic)", 10],
  ["COc1ccc([C@@H]2CN(C)C(=O)[C@H]2C(=O)Nc2cccc(F)c2C)cc1Cl (racemic)", 10],
  ["CC(C)c1cc(NC(=O)[C@@H]2C(=O)N(C)C[C@H]2c2ccc(C(F)(F)F)cc2)[nH]n1 (racemic)", 0],
  ["Cc1c(Br)cccc1NC(=O)[C@@H]1C(=O)N(C)C[C@H]1c1ccc(C(F)(F)F)cc1 (racemic)", 0],
  ["Cc1nccc(NC(=O)[C@@H]2C(=O)N(C)C[C@H]2c2ccc(C(F)(F)F)cc2)c1C (racemic)", 0],
  ["CCOc1cc(C)cc(C2CN(C)C(=O)C2C(=O)Nc2cccc(F)c2F)c1 (centres unmarked)", 20],
  ["Cc1ccc(C2CN(C)C(=O)C2C(=O)Nc2cccc(F)c2F)cc1[N+](=O)[O-] (centres unmarked)", 10],
  ["CN1C[C@H](c2cccc(C(F)(F)F)c2)[C@@H](C(=O)Nc2cnccc2C#N)C1=O (racemic)", 0],
  ["CN1C[C@H](c2cccc(C(F)(F)F)c2)[C@@H](C(=O)Nc2ccc3cccnc3n2)C1=O (racemic)", 0],
  ["Cc1cccc(NC(=O)[C@H]2C(=O)N(C)C[C@@H]2c2ccc(C(F)(F)F)cc2)c1C#N (racemic)", 0]
]}

###

Catalogue of Ragweed plant response rating readings, one per entry.
Test system: ragweed (common ragweed, Ambrosia elatior)
assay-procedure: Test A postemergence
Format: in vivo
settings: 125 g ai/ha, postemergence; visual injury rating on 0 to 100 scale (0 no effect, 100 complete control), approx. 10 d

{"columns": ["compound", "Ragweed plant response rating"],
 "data": [
  ["O=C1NCC(c2cc(F)cc(Cl)c2)C1C(=O)Nc1ccccc1F (stereo not drawn) [Compound 491]", 0],
  ["CCc1ccc(C2CNC(=O)C2C(=O)Nc2ccccc2F)cc1 (stereo not drawn) [Compound 466]", 0],
  ["CN1CC(c2ccc3c(c2)OC(F)(F)O3)C(C(=O)Nc2ccccc2S(C)(=O)=O)C1=O (stereo not drawn) [Compound 443]", 20],
  ["CS(=O)(=O)c1ccccc1NC(=O)C1C(=O)NCC1c1ccc(C2CC2)cc1 (racemic) [Compound 502]", 0],
  ["Cc1c(F)ccc(NC(=O)C2C(=O)NCC2c2cccc(C(F)(F)F)c2)c1F (stereo not drawn) [Compound 463]", 0],
  ["O=C1NCC(c2c(F)cccc2F)C1C(=O)Nc1ccccc1F (racemic) [Compound 515]", 0],
  ["O=C1NCC(c2cc(F)cc(C(F)(F)F)c2)C1C(=O)Nc1ccc(F)cc1F (stereo not drawn) [Compound 490]", 0],
  ["CN1CC(c2cccc(OC(F)(F)C(F)F)c2)C(C(=O)Nc2cccc(F)c2F)C1=O (stereo not drawn) [Compound 392]", 50],
  ["CN1CC(c2cccc(Br)c2)C(C(=O)Nc2cccc(F)c2F)C1=O (stereo not drawn) [Compound 520]", 30]
]}

###

Tested on: Kochia (Kochia scoparia)
assay-procedure: Test A postemergence
Format: in vivo
settings: Bassia scoparia, post-emergence, 240 h, Postemergence, 31 g ai/ha; visual injury after approx. 10 d; 0 to 100 scale, 0 no effect, 100 complete control; read-out: Plant response rating, Kochia

{"columns": ["compound", "unit-text", "pest or weed control at 31 g/ha"],
 "data": [
  ["C=C(C)c1cccc([C@H]2CN(C)C(=O)[C@@H]2C(=O)Nc2cccc(F)c2C)c1 [Compound 1086]", "%", 0],
  ["O=C(Nc1cccc(Cl)c1F)[C@H]1C(=O)N(C2CC2)CC[C@@H]1c1ccc(F)cc1 [Compound 1006]", "%", 0],
  ["O=C1NC[C@H](c2csc3c2CCC3)[C@H]1C(=O)Nc1cccc(F)c1F [Compound 1164]", "%", 0],
  ["CCOc1cc([C@H]2CN(C)C(=O)[C@@H]2C(=O)Nc2cccc(F)c2F)cc(C(F)(F)F)c1 [Compound 971]", "%", 20],
  ["Cc1ccc([C@H]2CN(C)C(=O)[C@@H]2C(=O)Nc2cnccc2C(F)(F)F)cc1 [Compound 1067]", "%", 0],
  ["CN1C[C@H](c2cc(C(F)F)cs2)[C@@H](C(=O)Nc2cccc(F)n2)C1=O [Compound 1090]", "%", 0],
  ["CN1C[C@H](c2ccc(C(F)(F)F)c(O)c2)[C@@H](C(=O)Nc2cccc(F)c2F)C1=O [Compound 1173]", "%", 30],
  ["CN1C[C@H](c2cc(F)cc(C(F)(F)F)c2)[C@@H](C(=O)Nc2cccnc2F)C1=O [Compound 1176]", "%", 0]
]}
